# Species on record: Rattus norvegicus
# method.notes: Difference in systolic blood pressure observed prior to the first application and 2 hr after the fifth application to spontaneously hypertensive rats(SHR)
# Type: functional, Artery
observable: Delta blood pressure
Hey, just the number and the unit after it is fine.

Please review the following examples before continuing.
C=C[C@@]1(C)CC(=O)[C@@]23OS(=O)O[C@H]4CCC(C)(C)[C@H](C5OS(=O)OC5[C@@]2(C)O1)C43C (some centres undefined)
0 mmHg
C=C[C@@]1(C)CC(=O)[C@@]23OS(=O)O[C@H]4CCC(C)(C)[C@H](C(O)C(OC(C)=O)[C@@]2(C)O1)C43C (some centres undefined)
-31 mmHg
CC(=O)OC1C(O)[C@H]2C(C)(C)CC[C@H](O)C2(C)[C@@]2(O)C(=O)C[C@](C)(C=O)O[C@]12C (some centres undefined)
-22 mmHg

Now consider a different compound.
# query: Delta blood pressure of entry C=C[C@@]1(C)CC(=O)[C@]2(O)C3(C)[C@@H](OCc4ccccc4)CCC(C)(C)[C@@H]3C(O)C(OC(=O)C(C)(C)Br)[C@@]2(C)O1 (some centres undefined)
0 mmHg
